# Assayed system: human somatostatin receptor subtype 2 (Homo sapiens, UniProt P30874)
# Construct: expressed in transfected cells
# Sequence (P30874 whole entry): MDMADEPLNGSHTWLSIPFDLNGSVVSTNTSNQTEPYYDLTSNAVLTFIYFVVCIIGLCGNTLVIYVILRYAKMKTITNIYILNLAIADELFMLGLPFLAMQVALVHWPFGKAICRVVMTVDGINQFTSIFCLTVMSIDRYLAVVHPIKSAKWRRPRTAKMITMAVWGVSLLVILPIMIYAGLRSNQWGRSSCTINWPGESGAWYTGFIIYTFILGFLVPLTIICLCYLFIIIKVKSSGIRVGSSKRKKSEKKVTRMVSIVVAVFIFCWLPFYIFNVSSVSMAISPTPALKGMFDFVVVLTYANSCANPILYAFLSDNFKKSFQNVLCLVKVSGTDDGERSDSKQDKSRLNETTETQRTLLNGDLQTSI
# Assay info: Functional cAMP assay for SSTR2 agonists (HTRF) in CHO-K1 cells
# Format: cell-based
# Particulars: CHO-K1 cells stably expressing human SST2, 20 min; read-out: hSST2 cAMP Avg EC50
Reported endpoint: pEC50
Give bare numbers, as −log10 of the molar value.

Quick one: give me pEC50 for each item below, same order please.
1. CCC(C)C(C(CC(=O)N1CCCC1C(OC)C(C)C(=O)NC(C)C(O)c1ccccc1)OC)N(C)C(=O)C(NC(=O)C(C(C)C)N(C)C(=O)OCc1ccc(NC(=O)[C@H](CCCNC(N)=O)NC(=O)[C@@H](NC(=O)CCOCCOCCOCCOCCOCCOCCOCCOCCC(=O)NCCNc2ncc(-c3cc(C)cc(F)c3)c(N3CCC(N)CC3)c2-c2nc3ccc(Cl)cc3[nH]2)C(C)C)cc1)C(C)C (stereo in doubt) [Compound 27]
2. CC[C@H](C)[C@@H]([C@@H](CC(=O)N1CCC[C@H]1[C@H](OC)[C@@H](C)C(=O)N[C@H](C)[C@@H](O)c1ccccc1)OC)N(C)C(=O)[C@@H](NC(=O)[C@H](C(C)C)N(C)C(=O)OCc1ccc(NC(=O)[C@H](C)NC(=O)[C@@H](NC(=O)CCOCCOCCOCCOCCC(=O)NCCNc2ncc(-c3cc(C)cc(F)c3)c(N3CCC(N)CC3)c2-c2nc3ccc(Cl)cc3[nH]2)C(C)C)c(O[C@@H]2O[C@H](C(=O)O)[C@@H](O)[C@H](O)[C@H]2O)c1)C(C)C [Compound 150]
3. CC[C@H](C)[C@@H]([C@@H](CC(=O)N1CCC[C@H]1[C@H](OC)[C@@H](C)C(=O)N[C@H](C)[C@@H](O)c1ccccc1)OC)N(C)C(=O)[C@@H](NC(=O)[C@H](C(C)C)N(C)C(=O)OCc1ccc(NC(=O)[C@H](CCCNC(N)=O)NC(=O)[C@@H](NC(=O)[C@H](CCC(=O)O)NC(=O)CCOCCC(=O)NCCNc2ncc(-c3cc(C)cc(F)c3)c(N3CCC(N)CC3)c2-c2nc3ccc(Cl)cc3[nH]2)C(C)C)c(O[C@@H]2O[C@H](C(=O)O)[C@@H](O)[C@H](O)[C@H]2O)c1)C(C)C [Compound 143]

[9.70, 9.74, 9.85]
